Biological target: mouse cathepsin K (Mus musculus, UniProt P55097)
Sequence (P55097 115-329): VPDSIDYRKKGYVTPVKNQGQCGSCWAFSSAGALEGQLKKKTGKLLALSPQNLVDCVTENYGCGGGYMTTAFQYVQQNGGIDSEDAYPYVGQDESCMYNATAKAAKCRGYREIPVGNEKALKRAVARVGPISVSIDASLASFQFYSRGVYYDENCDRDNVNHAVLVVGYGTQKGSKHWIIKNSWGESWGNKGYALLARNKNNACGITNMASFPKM
Experiment: Recombinant enzyme assay, mouse cathepsin K
Conditions: footnote a: IC50
Readout: pIC50
One number for each entry, as −log10 of the molar value.

Record C#C[C@@H]1CN(C(=O)[C@H](CC(C)C)NC(=O)c2ccc(-c3nc(N4CCN(C)CC4)sc3F)cc2)[C@@H]2C(=O)CO[C@H]12 [MIV-711] , field pIC50: 6.00

* * *

Molecular target: human cathepsin L (Homo sapiens)
Sequence (P07711 114-333): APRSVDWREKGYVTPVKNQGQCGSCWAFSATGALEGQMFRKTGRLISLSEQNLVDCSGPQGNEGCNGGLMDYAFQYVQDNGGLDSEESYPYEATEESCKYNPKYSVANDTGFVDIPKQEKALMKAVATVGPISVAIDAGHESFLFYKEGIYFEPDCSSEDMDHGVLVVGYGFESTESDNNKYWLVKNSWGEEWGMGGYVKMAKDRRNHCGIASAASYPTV
Readout: Ki
The reply should read as a number followed by its unit.

Record `C#C[C@@H]1CN(C(=O)[C@H](CC(C)C)NC(=O)c2ccc(-c3nc(N4CCN(C)CC4)sc3F)cc2)[C@@H]2C(=O)CO[C@H]12` , field Ki: 1700 nM
